Recorded values, source PubChem BioAssay (NCATS).

- Test system: DIV14
- Assay Details: qHTS profiling for inhibitors of Plasmodium falciparum proliferation (AID 504749); also: nearly all actives have a fitted effect of over 60% in size
- Test Conditions: P. falciparum in erythrocytes, SYBR Green DNA, 72 h; series mostly up to 28.7 µM
Results filed as inconclusive are left out. The source made the active and inactive calls. Calls follow the shape of the dose curve; as a rule, active = well fitted inhibition curve with a large enough effect; inconclusive = small, poorly fitted or top-dose-only effect; inactive = flat fitted curve, though single readings scatter.
Outcome codes: active, inactive

[
  {
    "Compound": "CCOC(=O)C(CCc1ccccc1)NC(C)C(=O)N1Cc2cc(OC)c(OC)cc2CC1C(=O)O (stereo not given)",
    "Category": "active"
  },
  {
    "Compound": "CCN(CC)CCOCCOC(=O)C(CC)(CC)c1ccccc1 (tested in a mixture with another compound)",
    "Category": "active"
  },
  {
    "Compound": "CC(=O)NC1[C@H](O)C[C@@](O)(C(=O)O)O[C@H]1[C@H](O)[C@H](O)CO (stereo not given in full)",
    "Category": "inactive"
  },
  {
    "Compound": "C=CCn1c(=O)n(C2OC(CO)C(O)C2O)c2nc(N)[nH]c(=O)c21 (stereo not given)",
    "Category": "inactive"
  },
  {
    "Compound": "O=c1[nH]c(=O)n(C2C[C@H](O)[C@@H](CO)O2)cc1C(F)(F)F (stereo not given in full)",
    "Category": "inactive"
  },
  {
    "Compound": "COc1ccc(C(=O)/C(Br)=C/C(=O)O)cc1",
    "Category": "inactive"
  },
  {
    "Compound": "CC1C(=O)C(=O)C=CN1C (stereo not given)",
    "Category": "inactive"
  },
  {
    "Compound": "CCN1CCN(C(=O)NC(C(=O)NC2C(=O)N3C(C(=O)O)=C(CSc4nnnn4C)CSC23)c2ccc(O)cc2)C(=O)C1=O (stereo not given)",
    "Category": "inactive"
  },
  {
    "Compound": "C[C@H](CN1c2ccccc2Sc2cccnc21)N(C)C",
    "Category": "active"
  },
  {
    "Compound": "CC1=C(/C=C/C(C)=C\\C=C\\C(C)=C\\C=C\\C=C(C)\\C=C\\C=C(C)\\C=C\\C2=C(C)C[C@@H](O)CC2(C)C)C(C)(C)C[C@H](O)C1",
    "Category": "active"
  },
  {
    "Compound": "CCN(CC)CC(=O)Nc1c(C)cc(C)cc1C",
    "Category": "inactive"
  },
  {
    "Compound": "C=C(CC[C@@H](C)[C@H]1CCC2[C@]1(C)CC[C@]13C[C@@]14CCC(OC(=O)/C=C/c1ccc(O)c(OC)c1)C(C)(C)[C@@H]4CC[C@@]23C)C(C)C (stereo not given in full)",
    "Category": "inactive"
  },
  {
    "Compound": "NC(=O)OC[C@@H]1[C@H](NC(=O)/C(=N/OCC(=O)O)c2csc(N)n2)C(=O)N1S(=O)(=O)O",
    "Category": "inactive"
  },
  {
    "Compound": "NC(=O)c1ncn(C2OC(CO)C(O)C2O)c1N (stereo not given)",
    "Category": "inactive"
  },
  {
    "Compound": "NC(C(=O)O)c1ccc(O)cc1 (stereo not given)",
    "Category": "inactive"
  },
  {
    "Compound": "CC(=O)C1(O)Cc2c(O)c3c(c(O)c2C(OC2CC(N)C(O)C(C)O2)C1)C(=O)c1c(O)cccc1C3=O (stereo not given)",
    "Category": "active"
  },
  {
    "Compound": "CN1[C@@H]2CC[C@@H]1CC(OC(=O)[C@H](CO)c1ccccc1)C2 (stereo not given in full)",
    "Category": "inactive"
  },
  {
    "Compound": "CCCC[C@H]1C(=O)N(c2ccccc2)N(c2ccc(O)cc2)C1=O",
    "Category": "inactive"
  },
  {
    "Compound": "NC(=O)NC(CCC(=O)O)C(=O)O (stereo not given)",
    "Category": "inactive"
  },
  {
    "Compound": "COc1cc([C@H]2c3cc4c(cc3[C@@H](O[C@H]3O[C@H]5CO[C@@H](C)O[C@H]5[C@@H](O)[C@@H]3O)[C@@H]3COC(=O)[C@H]23)OCO4)cc(OC)c1O",
    "Category": "inactive"
  },
  {
    "Compound": "CCCCN1CC(O)C(O)C(O)C1CO (stereo not given)",
    "Category": "inactive"
  },
  {
    "Compound": "CC1CN(c2c(F)c(N)c3c(=O)c(C(=O)O)cn(C4CC4)c3c2F)CC(C)N1 (stereo not given)",
    "Category": "inactive"
  },
  {
    "Compound": "CCCCC(=O)O[C@]1(C(=O)CO)CCC2C3CCC4=CC(=O)CCC4(C)C3C(O)CC21C (stereo not given in full)",
    "Category": "inactive"
  },
  {
    "Compound": "OC[C@@H](O)C(O[C@@H]1O[C@@H](CO)[C@H](O)[C@H](O)[C@H]1O)[C@H](O)[C@@H](O)CO (stereo not given in full)",
    "Category": "inactive"
  },
  {
    "Compound": "C[C@]12CC[C@@H]3c4ccc(O)cc4CC[C@H]3[C@@H]1C[C@H](O)C2O (stereo not given in full)",
    "Category": "inactive"
  }
]

----------
- Experimental System: Cytochrome P450 2C19 (Homo sapiens) (UniProt P33261)
- Sequence (P33261 whole entry, looked up): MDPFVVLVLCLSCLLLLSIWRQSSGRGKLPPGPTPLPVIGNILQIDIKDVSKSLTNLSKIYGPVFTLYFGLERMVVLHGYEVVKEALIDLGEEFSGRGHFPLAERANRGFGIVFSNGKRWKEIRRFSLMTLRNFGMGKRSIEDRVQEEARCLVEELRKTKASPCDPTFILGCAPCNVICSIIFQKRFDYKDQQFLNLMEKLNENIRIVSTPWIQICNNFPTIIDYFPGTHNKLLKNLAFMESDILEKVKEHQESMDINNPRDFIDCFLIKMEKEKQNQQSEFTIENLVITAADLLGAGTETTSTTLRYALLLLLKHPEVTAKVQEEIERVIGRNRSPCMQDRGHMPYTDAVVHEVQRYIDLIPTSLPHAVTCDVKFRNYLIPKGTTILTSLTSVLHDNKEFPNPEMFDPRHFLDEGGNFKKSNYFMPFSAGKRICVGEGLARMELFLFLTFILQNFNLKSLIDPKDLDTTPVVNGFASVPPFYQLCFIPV
- Assay Details: qHTS Assay for Inhibitors and Substrates of Cytochrome P450 2C19 (AID 899); also: nearly all actives have a fitted effect of over 60% in size
- Test Conditions: recombinant CYP2C19, luciferin-H EGE luminescence; series mostly up to 57.1 µM
Inconclusive results are not listed. Active and inactive are the calls of the source. Calls come from the whole dose curve; as a rule, active = well fitted inhibition curve with a large enough effect; inconclusive = small, poorly fitted or top-dose-only effect; inactive = no such curve, though single readings can be large or run the other way.
Possible outcomes: active, inactive

[
  {
    "Chemical Smiles": "C[C@@H](C(=O)NCc1ccc(S(C)(=O)=O)cc1)[C@@H]1C[C@@]1(C)[C@@H](NC(=O)OCc1ccccc1)c1ccccc1",
    "Category": "active"
  },
  {
    "Chemical Smiles": "CC1(C)CC[C@]2(C(=O)O)CC[C@]3(C)C(=CC[C@@H]4[C@@]5(C)CC[C@H](O)C(C)(C)[C@@H]5CC[C@@]43C)[C@@H]2C1",
    "Category": "inactive"
  },
  {
    "Chemical Smiles": "COc1ccc(NC(=O)/C=C\\c2ccc(Cl)cc2)cc1",
    "Category": "active"
  },
  {
    "Chemical Smiles": "COc1ccc2nc3c(c([Si](C)(C)C(C)(C)C)c2c1)Cn1c-3cccc1=O",
    "Category": "active"
  },
  {
    "Chemical Smiles": "CC1=C(\\C=C/C(C)=C/C=C\\C(C)=C\\CO)C(C)(C)CCC1",
    "Category": "inactive"
  },
  {
    "Chemical Smiles": "COC(=O)[C@@H]1C[C@H]1[C@@H](NC(=O)OCc1ccccc1)c1ccccc1",
    "Category": "active"
  }
]

----------
Reported values of activity, negative = inhibition for individual entries
- Assay Details: Stat Signaling Pathway (AID 446);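 also: ME-180 cervical cancer cells given 40 pM IL-6 alongside compound; SIE-controlled beta-lactamase reporter measured as 460/530 nm FRET emission ratio; % is scaled to controls: 0 for no effect and ±100 for the full control effect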
- Test Conditions: ME-180 (cervical carcinoma) SIE beta-lactamase reporter, IL-6 stimulated, 5 h; at 17.2 µM (top of the series) unless noted
Records with an inconclusive call do not appear.
Measured Property: activity, negative = inhibition (%)

[
  {
    "Chemical Smiles": "CCOC(=O)c1c(C(F)(F)C(F)(F)C(F)(F)C(F)(F)F)n[nH]c1C",
    "Number": -8.59
  },
  {
    "Chemical Smiles": "CNC(=O)Nc1cccc(NC(=O)NC)n1",
    "Number": 0.623
  },
  {
    "Chemical Smiles": "CC(=O)OC12CC3CC(C1)C(=NO)C(C3)C2",
    "Number": 13.8
  }
]

----------
- Assay Details: NFAT Signaling Pathway (AID 444);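 also: carbachol stimulus at about its EC50 of 1 µM final; % is scaled to controls: 0 for no effect and ±100 for the full control effect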
- Test Conditions: Jurkat NFAT-bla M1, carbachol, beta-lactamase ratio, 5 h; at 17.2 µM (top of the series) unless noted
Results filed as inconclusive are left out.
Measured Property: activity change, negative = inhibition (%)

[
  {
    "Compound": "CCCCOc1ccc(CSC(CC(=O)O)C(=O)O)cc1 (stereo not drawn)",
    "Unit Descriptor": "%",
    "Number": 11.2
  },
  {
    "Compound": "O=C1C(=O)N(Cc2cccnc2)C(c2ccccn2)/C1=C(/O)c1ccccc1 (stereo not drawn)",
    "Unit Descriptor": "%",
    "Number": -4.6
  },
  {
    "Compound": "CCCCCOc1ccc(Cl)cc1CN1CCOCC1",
    "Unit Descriptor": "%",
    "Number": 4.03
  },
  {
    "Compound": "O=C(NCCOCCOCCNC(=O)c1cccnc1)c1cccnc1",
    "Unit Descriptor": "%",
    "Number": -1.99
  },
  {
    "Compound": "CCOC(=O)NC(O)C(=O)c1cccs1 (stereo not drawn)",
    "Unit Descriptor": "%",
    "Number": -1.46
  },
  {
    "Compound": "CC(C)c1nc(N2CCOCC2)c(C#N)c2c1COC(C)(C)C2",
    "Unit Descriptor": "%",
    "Number": -4.43
  },
  {
    "Compound": "O=c1c2ccccc2ncn1Cc1ccco1",
    "Unit Descriptor": "%",
    "Number": -4.44
  },
  {
    "Compound": "CCOCCn1c(SC)nc2c1c(=O)[nH]c(=O)n2C",
    "Unit Descriptor": "%",
    "Number": -1.92
  },
  {
    "Compound": "COc1ccc(-c2nnc3sc(-c4ccccc4OC)nn23)cc1",
    "Unit Descriptor": "%",
    "Number": -23.6
  },
  {
    "Compound": "CCOC(=O)CC(C#N)c1cn(C)c2ccccc12 (stereo not drawn)",
    "Unit Descriptor": "%",
    "Number": -8.09
  },
  {
    "Compound": "CCOC(=O)C1/C(=N\\O)CC(C)(O)C(C(=O)OCC)C1c1ccc(OC)c(OC)c1 (stereo not drawn)",
    "Unit Descriptor": "%",
    "Number": -0.404
  },
  {
    "Compound": "CC1(C)CC(=O)C2=C(C1)OC(N)=C(C#N)[C@@]21C(=O)N(CC(N)=O)c2ccccc21",
    "Unit Descriptor": "%",
    "Number": 4.51
  },
  {
    "Compound": "COc1ccc(OC)c(C2/C(=C(\\O)c3ccc4c(c3)OCCO4)C(=O)C(=O)N2CCCN(C)C)c1 (stereo not drawn)",
    "Unit Descriptor": "%",
    "Number": 12.2
  },
  {
    "Compound": "CCCCc1nc2sc3c(c2c(=O)[nH]1)CCC3",
    "Unit Descriptor": "%",
    "Number": -7.93
  },
  {
    "Compound": "Cc1ccc(N(CC(O)CN2CCCC2)S(=O)(=O)c2ccc(C)cc2)cc1 (stereo not drawn)",
    "Unit Descriptor": "%",
    "Number": -19.4
  },
  {
    "Compound": "N#Cc1c(N)nc(SCC(=O)NCc2ccc3c(c2)OCO3)c(C#N)c1-c1cccs1",
    "Unit Descriptor": "%",
    "Number": -13.6
  },
  {
    "Compound": "CCCCC(C(=O)O)C(C)CC(=O)Nc1cccc(C(=O)O)c1 (stereo not drawn)",
    "Unit Descriptor": "%",
    "Number": -0.782
  },
  {
    "Compound": "CC1(C)Cc2c(C#N)c(OCC(=O)c3ccc(Cl)cc3)nc(-c3ccoc3)c2CO1",
    "Unit Descriptor": "%",
    "Number": -4.81
  },
  {
    "Compound": "Cc1nc(Nc2ncc3c(n2)CCCC3=O)nc2ccccc12",
    "Unit Descriptor": "%",
    "Number": 19.8
  },
  {
    "Compound": "CCC(=O)NC1(C(F)(F)F)C(=O)Nc2c1c(=O)[nH]c(=O)n2Cc1ccco1 (stereo not drawn)",
    "Unit Descriptor": "%",
    "Number": 18.9
  },
  {
    "Compound": "CCOC(=O)c1ccc(CC2S/C(=C(\\C#N)C(C)=O)NC2=O)cc1 (stereo not drawn)",
    "Unit Descriptor": "%",
    "Number": 13.3
  },
  {
    "Compound": "CCCCOc1ccc(C(=O)N2CCCC2C(=O)O)cc1 (stereo not drawn)",
    "Unit Descriptor": "%",
    "Number": -4.49
  },
  {
    "Compound": "Clc1ccc(-n2ncc3c(N4CCCC4)ncnc32)cc1",
    "Unit Descriptor": "%",
    "Number": 6.28
  },
  {
    "Compound": "O=C1CC(c2ccccc2)NC(=O)N1 (stereo not drawn)",
    "Unit Descriptor": "%",
    "Number": -2.15
  },
  {
    "Compound": "Cc1cc(=O)oc(C)c1C(=O)N[C@@H]1CCCCNC1=O",
    "Unit Descriptor": "%",
    "Number": 9.68
  },
  {
    "Compound": "N#Cc1c(N)sc(=S)c2c1CCCCC2",
    "Unit Descriptor": "%",
    "Number": -12.9
  },
  {
    "Compound": "CN(C)c1ccc(O)c2c1CC1CC3[C@@H](N(C)C)C(=O)C(C(N)=O)=C(O)[C@]3(O)C(=O)C1=C2O (stereo partly drawn)",
    "Unit Descriptor": "%",
    "Number": 8.29
  },
  {
    "Compound": "COCCNc1nc2c(c(=O)n(C)c(=O)n2C)n1Cc1cccc(C(F)(F)F)c1",
    "Unit Descriptor": "%",
    "Number": 5.18
  }
]
